Cited source for all entries: patent US9255093B2

Would you mind telling me the reported % change@TL7 (*@3.3 uM) of each entry?
# TESTED TARGET: hERG (human ether-a-go-go-related gene) potassium channel (Homo sapiens)
# Sequence (Q12809 whole entry): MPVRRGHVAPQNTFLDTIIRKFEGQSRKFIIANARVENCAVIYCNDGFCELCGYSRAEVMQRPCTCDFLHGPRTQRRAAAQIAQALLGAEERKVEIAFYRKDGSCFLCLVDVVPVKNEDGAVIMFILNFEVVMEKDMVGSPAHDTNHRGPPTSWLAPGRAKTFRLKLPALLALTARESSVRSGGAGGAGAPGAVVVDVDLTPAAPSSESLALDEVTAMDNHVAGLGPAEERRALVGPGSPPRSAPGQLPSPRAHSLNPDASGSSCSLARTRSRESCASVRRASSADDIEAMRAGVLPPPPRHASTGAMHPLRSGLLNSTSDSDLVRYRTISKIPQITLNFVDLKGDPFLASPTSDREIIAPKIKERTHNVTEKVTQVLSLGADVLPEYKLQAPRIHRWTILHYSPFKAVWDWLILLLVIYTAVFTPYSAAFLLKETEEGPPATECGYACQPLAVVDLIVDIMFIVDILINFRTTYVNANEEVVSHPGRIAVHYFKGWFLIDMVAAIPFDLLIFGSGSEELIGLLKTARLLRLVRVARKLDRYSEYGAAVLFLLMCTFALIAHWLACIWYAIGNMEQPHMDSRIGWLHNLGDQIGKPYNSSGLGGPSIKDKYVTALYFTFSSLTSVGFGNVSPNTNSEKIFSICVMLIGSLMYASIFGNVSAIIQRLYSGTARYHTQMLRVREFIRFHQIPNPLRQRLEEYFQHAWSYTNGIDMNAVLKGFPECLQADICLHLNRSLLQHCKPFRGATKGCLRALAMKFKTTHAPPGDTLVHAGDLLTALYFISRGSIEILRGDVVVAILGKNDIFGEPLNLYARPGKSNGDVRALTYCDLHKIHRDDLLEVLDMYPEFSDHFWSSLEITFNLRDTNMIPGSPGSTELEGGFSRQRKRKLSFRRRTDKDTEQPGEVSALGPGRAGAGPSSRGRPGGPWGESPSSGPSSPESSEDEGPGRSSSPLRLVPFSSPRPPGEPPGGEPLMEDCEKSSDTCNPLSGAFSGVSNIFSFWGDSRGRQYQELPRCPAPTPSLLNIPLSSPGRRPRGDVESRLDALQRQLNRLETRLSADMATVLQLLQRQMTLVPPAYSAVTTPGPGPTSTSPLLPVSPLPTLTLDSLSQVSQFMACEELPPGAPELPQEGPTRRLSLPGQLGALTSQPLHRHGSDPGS
# PROCEDURE TEXT: QPatch automated patch-clamp hERG activator 4-concentration EC50 assay
# STATED CONDITIONS: increase of hERG tail current amplitude at 7 second (TL7); 3.3 uM (footnote *); hERG stably expressed in CHO cells
Marks after values point to notes of the source that are not given here.

INPUT: Which % change@TL7 (*@3.3 uM) is reported with hERG (human ether-a-go-go-related gene) potassium channel (Homo sapiens) for this entry: COc1c(F)cc(NCc2ccc3cc(-c4nn[nH]n4)oc3c2)cc1Br [Example 1] ?
OUTPUT: 166* %

INPUT: Given the entry Fc1cc2cc(-c3nnn[nH]3)oc2cc1CNc1ccc(C(F)(F)F)c(Br)c1 [Example 177] , what % change@TL7 (*@3.3 uM) was observed with hERG (human ether-a-go-go-related gene) potassium channel (Homo sapiens)?
OUTPUT: 215* %

INPUT: So what % change@TL7 (*@3.3 uM) did FC(F)(F)c1ccc(NCc2ccc3cc(-c4nn[nH]n4)oc3c2)cc1Br [Example 3] get with hERG (human ether-a-go-go-related gene) potassium channel (Homo sapiens)?
OUTPUT: 121* %

INPUT: Checklist item: % change@TL7 (*@3.3 uM) tested on hERG (human ether-a-go-go-related gene) potassium channel (Homo sapiens), entry FC(F)(F)Oc1ccc(NCc2ccc3c(-c4nn[nH]n4)coc3c2)cc1Br [Example 233] , value?
OUTPUT: 202* %

INPUT: Lab note: need % change@TL7 (*@3.3 uM) with hERG (human ether-a-go-go-related gene) potassium channel (Homo sapiens) for entry FC(F)Oc1c(Br)cc(NCc2ccc3cc(-c4nn[nH]n4)oc3c2)cc1Br [Example 4] , please look it up.
OUTPUT: 155* %

INPUT: Provide the documented % change@TL7 (*@3.3 uM) with hERG (human ether-a-go-go-related gene) potassium channel (Homo sapiens) as the system for CCOc1c(F)cc(NCc2ccc3cc(-c4nn[nH]n4)oc3c2)cc1Br [Example 2]
OUTPUT: 126* %

###

# TESTED TARGET: UniProt Q12809
# PROCEDURE TEXT: QPatch automated patch-clamp hERG activator 4-concentration EC50 assay
# STATED CONDITIONS: increase of hERG tail current amplitude at 7 second (TL7); 10 uM; hERG stably expressed in CHO cells
Could you label it rule met if measured % change@TL7@10 uM is 200% or higher, and rule not met otherwise?

INPUT: Does the reported % change@TL7@10 uM for FC(F)(F)Oc1cc(Cl)cc(NCc2ccc3oc(-c4nnn[nH]4)cc3c2)c1 [Example 75] fall at or above the 200% mark?
OUTPUT: rule not met

INPUT: API: above_or_equal(metric=% change@TL7@10 uM, cutoff=200%) for item O=C(O)c1cc2cc(CNc3cc(Cl)c(Cl)c(Cl)c3)ccc2o1 [Example 120]
OUTPUT: rule met

INPUT: Determine whether this compound has % change@TL7@10 uM no lower than 200%: FC(F)(F)Oc1ccc(NCc2ccc3oc(-c4nnn[nH]4)cc3c2)cc1Cl [Example 65]
OUTPUT: rule met

INPUT: Hi, just wondering whether O=C(O)c1cc2ccc(CNc3cc(Cl)nc(Cl)c3)cc2o1 [Example 119] shows % change@TL7@10 uM of 200% or higher.
OUTPUT: rule not met

INPUT: Hi, just wondering whether CCOc1ccc(NCc2ccc3cc(-c4nnn[nH]4)oc3c2Cl)cc1C(F)(F)F [Example 206] shows % change@TL7@10 uM of 200% or higher.
OUTPUT: rule not met

INPUT: Kindly determine if % change@TL7@10 uM recorded for COc1cc(NCc2ccc3cc(-c4nn[nH]n4)oc3c2)cc(OC)c1OC [Example 62] is above or exactly 200%.
OUTPUT: rule not met

INPUT: In plain terms: is recorded % change@TL7@10 uM at least 200% for FC(F)(F)Oc1ccc(NCc2ccc3cc(-c4nn[nH]n4)oc3c2)cc1OC(F)(F)F [Example 41] ?
OUTPUT: rule not met

INPUT: # bool: % change@TL7@10 uM of O=C(O)c1cc2ccc(CNc3ccc4c(c3)OCCO4)cc2o1 [Example 105] >= 200%
OUTPUT: rule not met

INPUT: # check: % change@TL7@10 uM of FC(F)(F)c1ccc(NCc2cc3oc(-c4nnn[nH]4)cc3cc2Cl)cc1Cl [Example 198] is greater than or equal to 200%
OUTPUT: rule not met

INPUT: Hello, I need to know if CCCc1c(C)cc(NCc2cc3oc(-c4nnn[nH]4)cc3cc2Cl)cc1Cl [Example 220] has measured % change@TL7@10 uM not below 200%. Thanks!
OUTPUT: rule not met

INPUT: Confirm if % change@TL7@10 uM reported for the compound O=C(O)c1cc2ccc(CNc3ccc(SC(F)(F)F)c(C(F)(F)F)c3)cc2o1 [Example 91] is 200% or above.
OUTPUT: rule met

INPUT: Check if % change@TL7@10 uM >= 200% (inclusive). Item: O=C(O)c1cc2ccc(CNc3ccc(OC(F)(F)F)c(OC(F)(F)F)c3)cc2o1 [Example 104]
OUTPUT: rule not met

INPUT: Given the entry Clc1ccc(NCc2ccc3cc(-c4nn[nH]n4)oc3c2)cc1Br [Example 182] , answer whether its % change@TL7@10 uM meets or surpasses 200%.
OUTPUT: rule met

INPUT: Could you verify whether the entry O=C(O)c1cc2ccc(CNc3ccc(OC(F)(F)F)c(C(F)(F)F)c3)cc2o1 [Example 92] shows % change@TL7@10 uM of no less than 200%?
OUTPUT: rule met

INPUT: hey, is % change@TL7@10 uM for this one >= 200%? FC(F)(F)c1cc(NCc2cc3cc(-c4nnn[nH]4)oc3cc2Cl)cc(C(F)(F)F)c1Br [Example 137]
OUTPUT: rule not met

INPUT: For this compound, is measured % change@TL7@10 uM 200% or higher? FC(F)(F)c1ccc(NCc2ccc3c(C(F)(F)F)c(-c4nnn[nH]4)oc3c2)cc1Cl [Example 61]
OUTPUT: rule not met

INPUT: Can CCCc1ccc(NC(C)c2ccc3oc(-c4nnn[nH]4)cc3c2)cc1C(F)(F)F (centres unmarked) [Example 81] be said to have % change@TL7@10 uM at or above 200%?
OUTPUT: rule not met

INPUT: For this compound, is measured % change@TL7@10 uM 200% or higher? FC(F)(F)Oc1ccc(NCc2ccc3c(C(F)(F)F)c(-c4nnn[nH]4)oc3c2)cc1Cl [Example 54]
OUTPUT: rule not met

INPUT: Could you tell me if the measured % change@TL7@10 uM of FC(F)(F)c1cc(NCc2cc3oc(-c4nnn[nH]4)cc3cc2Cl)cc(C(F)(F)F)c1Br [Example 189] reaches 200% or more?
OUTPUT: rule met

INPUT: Please check the record Cc1nc2cc(NCc3ccc4cc(C(=O)O)oc4c3)ccc2s1 [Example 114] and state if its % change@TL7@10 uM is at or above 200%.
OUTPUT: rule not met

INPUT: I'd appreciate it if you could say whether C=C(C)c1cc(NCc2ccc3cc(-c4nn[nH]n4)oc3c2)ccc1OC(F)(F)F [Example 11] has % change@TL7@10 uM at least equal to 200%.
OUTPUT: rule not met

INPUT: Could you tell me if the measured % change@TL7@10 uM of CC(C)c1ccc(NCc2cc3oc(-c4nnn[nH]4)cc3cc2F)cc1Br [Example 160] reaches 200% or more?
OUTPUT: rule met

INPUT: Form field: % change@TL7@10 uM at least 200%? Entry: FC(F)(F)Oc1ccc(NCc2ccc3cc(-c4nn[nH]n4)oc3c2)cc1C(F)(F)F [Example 23]
OUTPUT: rule met

INPUT: Could you tell me if the measured % change@TL7@10 uM of Cc1cc(NCc2ccc3cc(C(=O)O)oc3c2)ccc1OC(F)(F)F [Example 102] reaches 200% or more?
OUTPUT: rule not met

INPUT: Hi team, for FC1(F)Oc2ccc(NCc3ccc4oc(-c5nnn[nH]5)cc4c3)cc2O1 [Example 67] , is the recorded % change@TL7@10 uM at or above 200%?
OUTPUT: rule met

INPUT: Test whether the compound O=C(O)c1cc2cc(F)c(CNc3cc(Cl)c(Cl)c(Cl)c3)cc2o1 [Example 232] records % change@TL7@10 uM of 200% or higher.
OUTPUT: rule met

INPUT: Would you say O=C(O)c1cc2cc(CNc3ccc(Cl)c(Cl)c3)ccc2o1 [Example 123] shows % change@TL7@10 uM at minimum 200%?
OUTPUT: rule not met

INPUT: Is % change@TL7@10 uM for O=C(O)c1cc2ccc(CNc3ccc(OC(F)(F)F)c(Cl)c3)cc2o1 [Example 88] at or above 200%?
OUTPUT: rule met

INPUT: Textbook exercise: given the entry CCOc1ccc(NCc2cc3oc(-c4nnn[nH]4)cc3cc2F)cc1C(F)(F)F [Example 161] , state whether its % change@TL7@10 uM is greater than or equal to 200%.
OUTPUT: rule met

INPUT: % change@TL7@10 uM >= 200% for CCCc1cc(NCc2ccc3oc(C(=O)O)cc3c2)ccc1C(F)(F)F [Example 125] ?
OUTPUT: rule not met

INPUT: Reported % change@TL7@10 uM at or above 200%? CC(C)COc1ccc(NCc2ccc3cc(-c4nn[nH]n4)oc3c2)cc1Br [Example 216]
OUTPUT: rule not met

INPUT: Would you say CCOc1ccc(NCc2cc3oc(-c4nnn[nH]4)cc3cc2Cl)cc1C(F)(F)F [Example 10] shows % change@TL7@10 uM at minimum 200%?
OUTPUT: rule met

INPUT: Does the compound FC(F)Oc1ccc(NCc2cc3oc(-c4nnn[nH]4)cc3cc2Cl)cc1C(F)(F)F [Example 25] have recorded % change@TL7@10 uM that is 200% or more?
OUTPUT: rule met

INPUT: Is reported % change@TL7@10 uM greater than or equal to 200% here: Fc1ccc(NCc2ccc3oc(-c4nnn[nH]4)cc3c2)cc1OC(F)(F)F [Example 72]
OUTPUT: rule not met

INPUT: Determine whether measured % change@TL7@10 uM meets or exceeds 200% for CCCc1ccc(NCc2cc3oc(-c4nnn[nH]4)cc3cc2Cl)cc1Br [Example 34]
OUTPUT: rule not met
